Below, each of the variants is paired with its reported protein stability index value.
B1: MFF (parent)
chain: YTEGISQRMRVPEKLKVAPPNADL

Variants of: B1
ASSAY_COMMENT: protein stability index of a GFP-peptide fusion (GPS, HEK-293T) (PSI 1-6); higher = more stable;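 further: lentivirally expressed fusions sorted by FACS into six bins by GFP to DsRed ratio, PSI derived from sequencing read proportions per bin multiplied by bin number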
CONDITION_CONTEXT: c terminus: a fixed tail appended
PROPERTY_NAME: protein stability index

[
  {
    "MUTANT_DESIGNATION": "G4T",
    "TEST_RESULT": 3.45
  },
  {
    "MUTANT_DESIGNATION": "L24F",
    "TEST_RESULT": 2.49
  },
  {
    "MUTANT_DESIGNATION": "P12R",
    "TEST_RESULT": 2.82
  },
  {
    "MUTANT_DESIGNATION": "V17M",
    "TEST_RESULT": 2.75
  },
  {
    "MUTANT_DESIGNATION": "P19F",
    "TEST_RESULT": 2.44
  },
  {
    "MUTANT_DESIGNATION": "K14T",
    "TEST_RESULT": 3.06
  },
  {
    "MUTANT_DESIGNATION": "R8C",
    "TEST_RESULT": 2.47
  },
  {
    "MUTANT_DESIGNATION": "E13G",
    "TEST_RESULT": 2.18
  },
  {
    "MUTANT_DESIGNATION": "G4C",
    "TEST_RESULT": 3.47
  },
  {
    "MUTANT_DESIGNATION": "K14F",
    "TEST_RESULT": 2.96
  },
  {
    "MUTANT_DESIGNATION": "L24T",
    "TEST_RESULT": 2.95
  },
  {
    "MUTANT_DESIGNATION": "P12W",
    "TEST_RESULT": 2.46
  },
  {
    "MUTANT_DESIGNATION": "V17R",
    "TEST_RESULT": 3.22
  },
  {
    "MUTANT_DESIGNATION": "E13P",
    "TEST_RESULT": 2.65
  }
]
